# assaySystem: Protein farnesyltransferase (Homo sapiens, UniProt P49354+P49356)
# protocolNotes: Inhibition of Farnesyltransferase
readoutKind: IC50 (nM)

Here are 4 compounds together with their reported answers.
{"columns": ["structure", "observedValue"],
 "data": [
  ["N#Cc1cccc(CN(Cc2c[nH]cn2)c2cccc(S(=O)(=O)N3CCCc4ccccc43)c2)c1", 570],
  ["CCCCOc1ccc(S(=O)(=O)N2CCCc3ccccc32)cc1N(Cc1cnc[nH]1)Cc1cnc[nH]1", 480],
  ["CSCC[C@H](NC(=O)[C@@H]1Cc2ccccc2CN1C(=O)[C@@H](NC[C@@H](N)CS)C(C)C)C(=O)O", 0.6],
  ["O=S(=O)(c1cccc(N(Cc2cnc[nH]2)Cc2cnc[nH]2)c1)N1CCCc2ccccc21", 130]
]}

I = CSCC[C@H](NC(=O)[C@@H]1Cc2ccccc2CN1C(=O)[C@@H](NCCc1cnc[nH]1)C(C)C)C(=O)O
II = O=S(=O)(c1cccc(NCc2cnc[nH]2)c1)N1CCCc2ccccc21
Endpoint returns the identifier whose IC50 is numerically larger, either I or II . Please reply using the label of the selected record.
II
(II: 15000 nM, I: 0.8 nM)
